- STUDY TARGET: T1, endothelial protein C receptor (EPCR), extracellular domain, biotinylated on the N-terminal BAP tag (human, UniProt Q9UNN8 18-210, biotin attached to the N-terminal BAP tag (BirA))
- T1 construct: also called biotinylated recombinant EPCR; ECPR
- T1 sequence: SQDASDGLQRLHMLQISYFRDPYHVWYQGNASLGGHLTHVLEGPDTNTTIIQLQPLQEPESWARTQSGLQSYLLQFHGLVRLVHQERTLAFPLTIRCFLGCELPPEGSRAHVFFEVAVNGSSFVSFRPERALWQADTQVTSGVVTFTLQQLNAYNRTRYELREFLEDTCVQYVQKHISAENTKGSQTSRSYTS
- PROTOCOL DESCRIPTION: SPR
- COND: both partners purified
binders and their reported kon

Use the examples below as a reference point.
CIDRα1.8a domain GA026_ERS010178 (domain or fragment, also called CIDRa1.8a GA026_ERS010178; GA026 (1.8a)) PDCVVDCKGAKCEQKMKPDGTCEKPQIYTRPKDVTPKIIKVLFSGDNQEDITEKLSSFCSNPKSKIDRNYQTWKCYYKSGHYNICEMKGSLYKYPEHPNDMLSVECFHLWVKNLLIDTIKWETKLKKCINNTNVTDCDNECNKNCECFENWVEQKKKEWEEVRKVYKDQKESLGIYYKKLENLFDTYYFEVMGALENEEKHGKWNQLTAKLKQIIESHKKNRHSGNSQDAIELLLDHLKETATTCKDNNSNESCDVSKDSKTNPC	17700 M⁻¹ s⁻¹
CIDRα1.6a domain of PfEMP1 PFD1235w (domain or fragment, also called CIDRa1.6a PFD1235w_3D7; PFD1235w (1.6a)) PECGVQCSGTTCTPKKVIHPNCKDKETYEPGDAKTTDITVLYSGDEEGDIAQKLQDFCNDKNKENDENYEKWQCYYKSSEINKCQMTPSSHKVPKHGYIMSFYAFFDLWVKNLLIDSINWKNDLTNCINNTNVTDCKNDCNTNCKCFENWAKTKENEWKKVKTIYKNENGNTNNYYKKLNNHFQGYFFHVMKELNKEEKWYKLMEDLKEKIDSSNLKNGTKDSEGAIKVLFDHLKDIAERCIDNNSKDSC	7550 M⁻¹ s⁻¹

Okay, now this binder:
// query So what's the measured kon for this one? CIDRα1.7 domain 1965-8 (patient isolate 1965) (domain or fragment) PHCGVDCNGKKCTLKSDNDPQCVNKLKYEPPYGVKPTEITVLYSADQEGDISKKLSEFCNDEKKINSKNIETWKCYYKSTYNNACKMDKNSKNHTPEVKITKFHNFFEMWIVYLLTETITWNDKLKTCMNNIKTTDCIDECNTNCVCFDKWVKQKGKEWNSIKKLFIKEQKNPKQNYGNINIYFESFFFHVMDKLNHDEAKWNELMNELKQIIDSSKANTDNKNLQDAIKVLFDHLKEIATICKDNNTNEACEDSKKETQNPC
// result 59200 M⁻¹ s⁻¹

This collection of values is drawn from paper PMC4297295.
